Assay: protein stability index of a GFP-peptide fusion (GPS, HEK-293T) (PSI 1-6); higher = more stable;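 also: 24-mer peptide tiles fused after GFP, lentivirally expressed, FACS-sorted into six equal bins by GFP/DsRed ratio, decoded by Illumina sequencing, PSI is the read-weighted mean bin number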
Details: treatment: DMSO; c terminus: a fixed tail appended
Provide the reported protein stability index of each item.
The reply should be a number, written without any unit.

Given VDFQCVKSKSITNLAAAAADIPQD [BTBD10] , state its recorded protein stability index.
4.79

Given GGIIAPFIPSLKYVQWSLPFIVFG [SLC22A15] , state its recorded protein stability index.
2.75

Given QPTTLVLPPQYVDDVISRIDRMFP [MED27] , state its recorded protein stability index.
3.67

Given CVHPRGGVIQSVSSWKHGSGTQYV [C18orf25] , state its recorded protein stability index.
2.58

Given VQELLPAACLLQLKGVKQACCEFL [KLHL12] , state its recorded protein stability index.
2.27

Given LGDEICCWSFYGQGRKIAEVCCTS [KCTD13] , state its recorded protein stability index.
2.15
